Reference source: patent US8008461B2

tested on: purified polypeptide (carbonyl reductase); assay: Substrate specificity of polypeptide (NADPH-dependent reduction of carbonyl compounds); assay type: biochemical, Candida magnoliae strain NBRC0661; conditions: 1 mM substrate, 0.25 mM NADPH, pH 6.5, 30° C.; relative to activity to 3-oxo-3-phenylpropanenitrile
OBSERVED_PROPERTY: Relative activity (%)
State the answer as a number, implicitly in %.

COMPOUND | OBSERVED_PROPERTY | UNIT_ABBREV | MEAS_VALUE
CCOC(=O)CC(=O)c1ccccc1 [ethyl benzoylacetate] | Relative activity | % | 7704

*Q* # lookup: Relative activity of COC(=O)C(C)=O [methyl pyruvate]
*A* 9450

*Q* # lookup: Relative activity of CCC(=O)C(=O)O
*A* 1866

*Q* # lookup: Relative activity of CC(=O)CO [hydroxyacetone]
*A* 361

*Q* # lookup: Relative activity of CCC(C)=O
*A* 181

----------
Relative activity by entry:
tested on: purified polypeptide (carbonyl reductase); assay: Substrate specificity of polypeptide (NADPH-dependent reduction of carbonyl compounds); format: biochemical, Candida magnoliae strain NBRC0661; conditions: 1 mM substrate, 0.25 mM NADPH, pH 6.5, 30° C.; relative to activity to 3-oxo-3-phenylpropanenitrile

Some solved entries appear below for comparison.
COMPOUND | Relative activity
CC(=O)CC(C)C [4-methyl-2-pentanone] | 60%
CC(=O)c1ccc(F)cc1 [p-fluoroacetophenone] | 722%
CCC(=O)Cc1ccccc1 [1-phenyl-2-butanone] | 1144%

*Q* # lookup: Relative activity of CC(=O)c1cccnc1 [3-acetylpyridine]
*A* 2107%
